- Target of assay: UniProtKB P43116
- Sequence (P43116 whole entry): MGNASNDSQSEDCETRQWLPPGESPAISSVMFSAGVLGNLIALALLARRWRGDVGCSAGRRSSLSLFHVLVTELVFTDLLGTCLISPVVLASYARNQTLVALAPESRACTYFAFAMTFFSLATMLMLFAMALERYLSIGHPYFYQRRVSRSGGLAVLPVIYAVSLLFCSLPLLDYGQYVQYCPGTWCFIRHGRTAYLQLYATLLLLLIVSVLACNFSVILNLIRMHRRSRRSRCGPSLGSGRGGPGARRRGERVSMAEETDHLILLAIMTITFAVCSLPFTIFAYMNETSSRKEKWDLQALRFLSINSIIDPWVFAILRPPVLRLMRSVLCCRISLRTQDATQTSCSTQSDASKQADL
- Protocol summary: hEP2 b-arrestin assay (PathHunter HEK 293 PTGER2 b-arrestin cells)
- Condition details: antagonistic activity, beta-arrestin assay; read-out: hEP2 b-arr IC50
- Experimental: Plate is pre-incubated 15 minutes at 37° C. Then five microliters of PGE2 (final conc. 5 μM) are transferred into the assay plate. Plate is incubated 120 minutes at 37° C. (each concentration is measured in duplicate)
pIC50: −log10 of the molar value.
Readout kind: pIC50

Structure notation | pIC50
CCOc1cc2c(cc1CCNc1cc(-c3ccc(C(=O)O)c(OCC)c3)ncn1)OCCO2 | 7.28

(a) CCOc1cc(-c2cc(NCCc3ccc4cccc(F)c4c3)ncn2)ccc1C(=O)O
(b) CN1C(=O)NCc2ccc(-c3cc(NCCc4cc(F)c5sccc5c4)ncn3)cc21
[in] For the pair a and b , which member has the lower pIC50 number? I would appreciate it if you answered with the label of your choice.
[out] a
(a: 5.79, b: 6.29)

* * *

- Target of assay: EP4 (Homo sapiens (Human))
- Sequence (P35408 whole entry): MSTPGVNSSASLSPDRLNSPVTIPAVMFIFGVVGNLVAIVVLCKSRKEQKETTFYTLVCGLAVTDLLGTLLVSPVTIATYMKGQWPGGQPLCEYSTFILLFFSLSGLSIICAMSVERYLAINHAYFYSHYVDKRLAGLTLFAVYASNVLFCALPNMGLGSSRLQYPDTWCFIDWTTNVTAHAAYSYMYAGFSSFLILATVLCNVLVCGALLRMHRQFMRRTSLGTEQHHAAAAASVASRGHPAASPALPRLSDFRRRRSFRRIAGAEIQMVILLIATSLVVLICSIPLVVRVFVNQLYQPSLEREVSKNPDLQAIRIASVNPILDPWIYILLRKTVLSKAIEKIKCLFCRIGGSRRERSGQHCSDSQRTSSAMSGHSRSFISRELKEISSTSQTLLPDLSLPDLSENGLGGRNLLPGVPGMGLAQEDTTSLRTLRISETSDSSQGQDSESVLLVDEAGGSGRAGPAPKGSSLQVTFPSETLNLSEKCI
- Protocol summary: hEP4 cAMP assay (BT549 breast cancer cells, HTRF cAMP)
- Assay type: cell-based
- Condition details: antagonistic activity, PGE2 6 nM
pIC50: −log10 of the molar value.
Readout kind: pIC50

Worked examples, 8 compounds total:
Structure notation | Target of assay | pIC50
CCOc1cc(-c2cc(NCCc3ccc4ccccc4c3C)ncn2)ccc1C(=O)O | EP4 (Homo sapiens (Human)) | 6.74
C#Cc1c(CCNc2cc(-c3ccc(C(=O)O)c(OC4CCC4)c3)ncn2)ccc2ccccc12 | EP4 (Homo sapiens (Human)) | 6.97
CCOc1cc(-c2cc(NCCc3c(F)cc4ncccc4c3F)ncn2)sc1C(=O)O | EP4 (Homo sapiens (Human)) | 7.68
CCOc1cc(-c2cc(NCCc3cc4c(cc3OC)OCCCO4)ncn2)sc1C(=O)O | EP4 (Homo sapiens (Human)) | 7.92
CCOc1cc2ccccc2cc1CCNc1cc(-c2cc(OCC)c(C(=O)O)s2)ncn1 | EP4 (Homo sapiens (Human)) | 7.85
COc1c(CCNc2cc(-c3ccc(C(=O)O)c(SC)c3)ncn2)cc2ccccc2c1Cl | EP4 (Homo sapiens (Human)) | 6.69
CCOc1cc(-c2cc(NCCc3c(F)cc4ncccc4c3F)ncn2)ccc1OCC(=O)O | EP4 (Homo sapiens (Human)) | 6.68
CCOc1cc(-c2cc(NCCc3c(F)cc4ncccc4c3F)ncn2)sc1-c1noc(=O)[nH]1 | EP4 (Homo sapiens (Human)) | 6.96

(A) CCOc1cc(-c2cc(NCCc3ccc4cccc(F)c4c3)ncn2)ccc1CC(=O)O
(B) COc1cc2occc2cc1CCNc1cc(-c2ccc(C(=O)O)c(SC)c2)ncn1
(C) CCOc1cc(-c2cc(NCCc3cc(Cl)c4sccc4c3)ncn2)sc1C(=O)O
[in] Please rank these compounds by pIC50 in descending order. Would you mind listing the labels in the order requested?
[out] C, B, A
(C: 8.70, B: 6.68, A: 6.15)

(a) CCOc1cc(-c2cc(NCCc3cc4ccoc4cc3F)ncn2)sc1C(=O)O
(b) Cc1csc2ccc(CCNc3cc(-c4ccc(C(=O)O)c(OC5CCC5)c4)ncn3)cc12
[in] For the pair a and b , which member has the lower pIC50 number? I would appreciate it if you answered with the label of your choice.
[out] b
(b: 6.18, a: 8.10)

(A) CCOc1cc(-c2cc(NCCc3c(OC)cc4occc4c3C)ncn2)ccc1CC(=O)O
(B) CCOc1cc(-c2cc(NCCc3cc(Cl)c4c(c3)OCCO4)ncn2)sc1C(=O)O
[in] For the pair A and B , which member has the lower pIC50 number? I would appreciate it if you answered with the label of your choice.
[out] A
(A: 6.81, B: 7.60)

(P) CCOc1cc(-c2cc(NCCc3cc4ccsc4cc3OC)ncn2)sc1-c1noc(=O)[nH]1
(Q) CCOc1cc(-c2cc(NCCc3cc4c(cnn4C)cc3OC)ncn2)sc1C(=O)O
[in] // pick larger pIC50 from pair: P vs Q I would appreciate it if you answered with the label of your choice.
[out] P
(P: 7.72, Q: 6.43)
